- study.target: T1, pKal catalytic domain Mutant 1 (human, UniProt P03952 391-638, limits assumed)
- T1 construct: domain: catalytic domain; Expressed in Pichia pastoris, purified by IMAC; not shown: His tag fusion
- T1 sequence (P03952 other isoform, or with tags, fused parts or gaps mutant limits assumed): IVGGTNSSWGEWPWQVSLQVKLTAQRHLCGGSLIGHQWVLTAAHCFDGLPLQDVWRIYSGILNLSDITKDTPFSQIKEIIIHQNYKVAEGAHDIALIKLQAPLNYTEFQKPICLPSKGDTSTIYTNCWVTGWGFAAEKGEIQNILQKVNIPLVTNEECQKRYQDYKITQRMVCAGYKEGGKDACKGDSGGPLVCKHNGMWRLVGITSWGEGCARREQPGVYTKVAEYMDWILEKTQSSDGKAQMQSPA
- procedure.text: apparent Ki (Ki,app), enzyme inhibition, pKal catalytic domain Mutant 1
- Method: Apparent Inhibition constants (K_{i,app} values) were measured by pre-incubating enzyme and inhibitor solutions prior to initiating the reactions with substrate. […] Reactions were initiated by the addition of 10 μL of a 10× concentrated stock of substrate, and were monitored at 30° C. in a fluorescence plate reader with the excitation and emission wavelengths set at 360 nm/460 nm, respectively. […]
reported.metric: pKi
Reminder that pKi is minus the log10 of a molar concentration.

Inquiry: # input binder: X115-F02 (Fab, V domains shown, also called 559A-X115-F02; 559A-X0115-F02) VH: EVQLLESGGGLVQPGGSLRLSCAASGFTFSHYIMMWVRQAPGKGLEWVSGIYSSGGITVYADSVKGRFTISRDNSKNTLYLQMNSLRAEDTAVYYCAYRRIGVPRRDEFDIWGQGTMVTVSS VL: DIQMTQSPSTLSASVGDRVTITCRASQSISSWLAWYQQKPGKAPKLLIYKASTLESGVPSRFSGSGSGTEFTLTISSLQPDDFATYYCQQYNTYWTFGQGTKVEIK ; wanted: its pKi
Reply text: 9.85

Inquiry: Also M6-D09 (antibody, V domains shown, also called M06-D09; 559A-M06-D09) VH: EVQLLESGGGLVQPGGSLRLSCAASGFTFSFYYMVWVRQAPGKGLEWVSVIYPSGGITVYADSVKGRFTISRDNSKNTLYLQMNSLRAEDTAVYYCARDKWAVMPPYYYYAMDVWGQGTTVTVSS VL: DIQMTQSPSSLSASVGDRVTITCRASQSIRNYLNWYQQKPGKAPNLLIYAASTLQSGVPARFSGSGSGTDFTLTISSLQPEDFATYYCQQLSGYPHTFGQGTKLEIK ?
Reply text: 8.47

Inquiry: Now this one: X115-A03 (antibody, V domains shown, also called 559A-X115-A03; 559A-X0115-A03) VH: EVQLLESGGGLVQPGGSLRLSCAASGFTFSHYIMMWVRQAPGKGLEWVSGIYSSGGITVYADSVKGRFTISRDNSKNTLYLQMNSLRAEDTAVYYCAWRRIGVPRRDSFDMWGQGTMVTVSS VL: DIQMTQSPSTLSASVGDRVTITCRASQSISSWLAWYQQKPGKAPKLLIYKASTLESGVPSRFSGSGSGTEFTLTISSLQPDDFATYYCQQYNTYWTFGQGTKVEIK
Reply text: 9.64
